- Assayed Target: Multidrug resistance-associated protein 1 (Homo sapiens, UniProt P33527)
- Sequence (P33527 whole entry): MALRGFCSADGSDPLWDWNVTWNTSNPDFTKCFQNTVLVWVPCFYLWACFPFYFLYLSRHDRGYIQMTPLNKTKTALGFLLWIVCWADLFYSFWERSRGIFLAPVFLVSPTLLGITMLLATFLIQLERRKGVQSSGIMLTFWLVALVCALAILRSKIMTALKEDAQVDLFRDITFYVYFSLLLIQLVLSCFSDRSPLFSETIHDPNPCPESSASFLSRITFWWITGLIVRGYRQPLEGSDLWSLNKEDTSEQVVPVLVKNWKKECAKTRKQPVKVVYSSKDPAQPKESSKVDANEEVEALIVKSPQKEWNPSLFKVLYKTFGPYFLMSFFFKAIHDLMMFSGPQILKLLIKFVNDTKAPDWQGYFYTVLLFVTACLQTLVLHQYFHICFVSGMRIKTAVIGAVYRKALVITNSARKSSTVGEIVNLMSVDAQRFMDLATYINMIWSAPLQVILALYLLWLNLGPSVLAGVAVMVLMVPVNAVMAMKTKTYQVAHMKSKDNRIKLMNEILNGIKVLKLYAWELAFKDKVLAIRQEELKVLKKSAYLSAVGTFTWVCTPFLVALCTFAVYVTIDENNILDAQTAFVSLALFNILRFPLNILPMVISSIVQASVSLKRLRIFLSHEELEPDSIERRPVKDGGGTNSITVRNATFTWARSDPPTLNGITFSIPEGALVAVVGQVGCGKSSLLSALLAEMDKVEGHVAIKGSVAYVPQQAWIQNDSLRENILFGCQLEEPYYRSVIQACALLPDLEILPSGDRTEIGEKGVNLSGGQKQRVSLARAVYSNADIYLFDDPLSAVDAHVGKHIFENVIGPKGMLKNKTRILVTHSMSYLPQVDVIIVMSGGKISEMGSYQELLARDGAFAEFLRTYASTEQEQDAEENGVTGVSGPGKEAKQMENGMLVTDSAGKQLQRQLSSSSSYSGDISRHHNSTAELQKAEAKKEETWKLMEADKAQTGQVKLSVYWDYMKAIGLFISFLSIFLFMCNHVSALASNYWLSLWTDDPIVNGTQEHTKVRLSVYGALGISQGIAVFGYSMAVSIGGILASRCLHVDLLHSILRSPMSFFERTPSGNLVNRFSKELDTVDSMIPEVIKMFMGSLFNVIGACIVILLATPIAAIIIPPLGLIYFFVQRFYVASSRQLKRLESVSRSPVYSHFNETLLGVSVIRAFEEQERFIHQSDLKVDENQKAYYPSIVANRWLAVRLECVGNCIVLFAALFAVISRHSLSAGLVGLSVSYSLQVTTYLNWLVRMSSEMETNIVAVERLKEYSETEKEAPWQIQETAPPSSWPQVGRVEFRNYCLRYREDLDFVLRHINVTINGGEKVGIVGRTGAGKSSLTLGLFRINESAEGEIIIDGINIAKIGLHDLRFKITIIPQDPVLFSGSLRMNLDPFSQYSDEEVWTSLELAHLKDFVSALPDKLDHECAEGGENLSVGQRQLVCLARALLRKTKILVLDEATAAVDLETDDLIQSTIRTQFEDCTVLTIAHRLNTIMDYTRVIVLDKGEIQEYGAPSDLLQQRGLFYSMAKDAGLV
- Assay Summary: Inhibition of MRP1 in human 2008/MRP1 cells assessed as potentiation of doxorubicin-induced cytotoxicity by measuring cell survival at 2 uM after 5 days by MTS assay relative to control
- Assay type: cell-based
- Applied Conditions: 120 h
As shown below, each of these molecules has a reported Survival value.
Supply the numeric figure in %, leaving out any unit text.

Cc1ccc(C(=O)/C=C/c2ccc(OCCCCc3cn(CCOCCOCCOc4ccc(-c5cc(=O)c6cc(F)ccc6o5)cc4)nn3)cc2)c(O)c1 = 51

Req: Report Survival on Multidrug resistance-associated protein 1 (Homo sapiens, UniProt P33527) for this entry: O=c1cc(-c2ccc(OCCCc3cn(CCOCCOc4ccc(-c5cc(=O)c6cc(F)ccc6o5)cc4)nn3)cc2)oc2ccc(F)cc12
Resp: 74

Req: Report Survival on Multidrug resistance-associated protein 1 (Homo sapiens, UniProt P33527) for this entry: C#CCOCCOc1ccc2c(=O)cc(-c3ccccc3)oc2c1
Resp: 98

Req: Report Survival on Multidrug resistance-associated protein 1 (Homo sapiens, UniProt P33527) for this entry: [N-]=[N+]=NCCOCCOc1ccc(-c2cc(=O)c3cc(F)ccc3o2)cc1
Resp: 90

----------
- Assay Summary: Cytotoxicity against human 2008/MRP1 cells assessed as cell survival at 2 uM after 5 days by MTS assay relative to control
- Type: cell-based
- Applied Conditions: read-out: Survival
The threshold is 50%. Values of viability at 120 h, 2 µM beneath it are tagged Fulfilled; values meeting or exceeding it are tagged Not fulfilled.

Req: Determine if Cc1ccc2oc(-c3ccc(OCCCCc4cn(CCOCCOc5ccc6c(=O)cc(-c7ccccc7)oc6c5)nn4)cc3)cc(=O)c2c1 shows viability at 120 h, 2 µM strictly lower than 50%.
Resp: Not fulfilled

Req: Determine if Cc1ccc2oc(-c3ccc(OCCCCc4cn(CCOCCOCCOc5ccc(-c6cc(=O)c7ccccc7o6)cc5)nn4)cc3)cc(=O)c2c1 shows viability at 120 h, 2 µM strictly lower than 50%.
Resp: Not fulfilled

Req: Determine if O=c1cc(-c2ccc(OCCOCCOCCn3cc(CN(CCOc4ccc5c(=O)cc(-c6ccccc6)oc5c4)Cc4ccccc4)nn3)cc2)oc2ccccc12 shows viability at 120 h, 2 µM strictly lower than 50%.
Resp: Not fulfilled

Req: Determine if O=c1cc(-c2ccc(OCCOCCOCCn3cc(CCCOc4ccc(-c5cc(=O)c6ccc(F)cc6o5)cc4)nn3)cc2)oc2ccccc12 shows viability at 120 h, 2 µM strictly lower than 50%.
Resp: Not fulfilled

Req: Determine if O=c1cc(-c2ccc(OCCCc3cn(CCOCCOc4ccc(-c5cc(=O)c6ccccc6o5)cc4)nn3)cc2)oc2ccccc12 shows viability at 120 h, 2 µM strictly lower than 50%.
Resp: Not fulfilled

----------
- Assayed Target: Multidrug resistance-associated protein 1 (Homo sapiens, UniProt P33527)
- Assay Summary: Inhibition of MRP1 in human 2008/MRP1 cells assessed as potentiation of doxorubicin-induced cytotoxicity by measuring cell survival at 2 uM after 5 days by MTS assay relative to control
- Assay type: cell-based
- Applied Conditions: 120 h
Reported Endpoint: Survival (%)
Supply the numeric figure in %, leaving out any unit text.

Field: example entries. Status: answers known.
Cc1ccc(O)c(C(=O)/C=C/c2ccc(OCCCCc3cn(CCOCCOCCOc4ccc(-c5oc6ccccc6c(=O)c5OCc5ccccc5)cc4)nn3)cc2)c1 = 76
Cc1ccc2oc(-c3ccc(OCCOCCOCCn4cc(CCCCOc5ccc(/C=C/C(=O)c6ccccc6O)cc5)nn4)cc3)cc(=O)c2c1 = 61
O=c1c(OCc2ccccc2)c(-c2ccc(OCCOCCn3cc(-c4cccc(-c5cn(CCOCCOc6ccc(-c7oc8ccccc8c(=O)c7OCc7ccccc7)cc6)nn5)c4)nn3)cc2)oc2ccccc12 = 87
O=c1[nH]c(-c2ccc(OCCCc3cn(CCOCCOCCOc4ccc(-c5cc(=O)c6cc(F)ccc6o5)cc4)nn3)cc2)nc2ccccc12 = 51

Req: Return Survival (reported value) for this compound: O=c1cc(-c2ccccc2)oc2cc(OCCOCCn3cc(CN(CCOc4ccc5c(=O)cc(-c6ccccc6)oc5c4)Cc4ccccc4)nn3)ccc12
Resp: 46

Req: Return Survival (reported value) for this compound: O=c1cc(-c2ccc(OCCOCCOCCn3cc(CNc4ccccc4)nn3)cc2)oc2ccccc12
Resp: 88

Req: Return Survival (reported value) for this compound: O=c1c(OCc2ccccc2)c(-c2ccc(OCCOCCOCCn3cc(CNc4ccccc4)nn3)cc2)oc2ccccc12
Resp: 87

Req: Return Survival (reported value) for this compound: Cc1ccc2oc(-c3ccc(OCCOCCOCCN=[N+]=[N-])cc3)cc(=O)c2c1
Resp: 84

Req: Return Survival (reported value) for this compound: O=c1cc(-c2ccccc2)oc2cc(OCCOCCn3cc(CN(Cc4cn(CCOCCOc5ccc6oc(-c7ccccc7)cc(=O)c6c5)nn4)Cc4cn(CCOCCOc5ccc6oc(-c7ccccc7)cc(=O)c6c5)nn4)nn3)ccc12
Resp: 83

Req: Return Survival (reported value) for this compound: Cc1ccc2oc(-c3ccc(OCCOCCOCCn4cc(CCCOc5ccc(-c6nc7ccccc7c(=O)[nH]6)cc5)nn4)cc3)cc(=O)c2c1
Resp: 72

Req: Return Survival (reported value) for this compound: C#CCCN1C(=O)c2ccccc2C1=O
Resp: 83

Req: Return Survival (reported value) for this compound: Cc1ccc(C(=O)/C=C/c2ccc(OCCCCc3cn(CCOCCOCCOc4ccc(-c5cc(=O)c6ccccc6o5)cc4)nn3)cc2)c(O)c1
Resp: 55

Req: Return Survival (reported value) for this compound: Cc1ccc2oc(-c3ccc(OCCCCc4cn(CCOCCOc5ccc6c(=O)cc(-c7ccccc7)oc6c5)nn4)cc3)cc(=O)c2c1
Resp: 34

Req: Return Survival (reported value) for this compound: O=c1cc(-c2ccc(OCCOCCn3cc(CCCOc4ccc5c(=O)cc(-c6ccccc6)oc5c4)nn3)cc2)oc2ccccc12
Resp: 23

Req: Return Survival (reported value) for this compound: O=c1cc(-c2ccccc2)oc2cc(OCCCc3cn(CCOCCOc4ccc(-c5cc(=O)c6cc(F)ccc6o5)cc4)nn3)ccc12
Resp: 55

Req: Return Survival (reported value) for this compound: COc1cccc(COc2c(-c3ccc(OCCCCc4cn(CCOCCOc5ccc(-c6cc(=O)c7ccccc7o6)cc5)nn4)cc3)oc3ccccc3c2=O)c1
Resp: 40

Req: Return Survival (reported value) for this compound: COc1cccc(COc2c(-c3ccc(OCCOCCn4cc(CCCCOc5ccc6c(=O)cc(-c7ccccc7)oc6c5)nn4)cc3)oc3ccccc3c2=O)c1
Resp: 86

Req: Return Survival (reported value) for this compound: COc1cccc(COc2c(-c3ccc(OCCCCc4cn(CCOCCOc5cccc(-c6oc7ccccc7c(=O)c6OCc6ccccc6)c5)nn4)cc3)oc3ccccc3c2=O)c1
Resp: 75

Req: Return Survival (reported value) for this compound: O=c1cc(-c2ccc(OCCOCCOCCn3cc(COCCOc4ccc5c(=O)cc(-c6ccccc6)oc5c4)nn3)cc2)oc2ccccc12
Resp: 59

Req: Return Survival (reported value) for this compound: O=c1cc(-c2ccc(OCCCc3cn(CCOCCOCCOc4ccc(-c5oc6ccccc6c(=O)c5OCc5ccccc5)cc4)nn3)cc2)oc2ccc(F)cc12
Resp: 75

Req: Return Survival (reported value) for this compound: Cc1ccc(C(=O)/C=C/c2ccc(OCCCCc3cn(CCOCCOc4ccc(-c5oc6ccccc6c(=O)c5OCc5ccccc5)cc4)nn3)cc2)c(O)c1
Resp: 66

Req: Return Survival (reported value) for this compound: O=c1cc(-c2ccccc2)oc2c(OCCn3cc(CNc4ccccc4)nn3)cccc12
Resp: 85

Req: Return Survival (reported value) for this compound: O=Cc1ccc(OCCCCc2cn(CCOCCOc3ccc(-c4oc5ccccc5c(=O)c4OCc4ccccc4)cc3)nn2)cc1
Resp: 59

Req: Return Survival (reported value) for this compound: CCc1ccc(O)c(C(=O)/C=C/c2ccc(OCCCCc3cn(CCOCCOCCOc4ccc5c(=O)cc(-c6ccccc6)oc5c4)nn3)cc2)c1
Resp: 79

Req: Return Survival (reported value) for this compound: O=c1[nH]c(-c2ccc(OCCCc3cn(CCOCCOc4ccc5c(=O)cc(-c6ccccc6)oc5c4)nn3)cc2)nc2ccccc12
Resp: 49

Req: Return Survival (reported value) for this compound: O=c1cc(-c2ccccc2)oc2cc(OCCOCc3cn(CCOCCOCCOc4ccc(-c5oc6ccccc6c(=O)c5OCc5ccccc5)cc4)nn3)ccc12
Resp: 45

Req: Return Survival (reported value) for this compound: O=C(/C=C/c1ccc(OCCCCc2cn(CCOCCOCCOc3ccc(-c4cc(=O)c5ccccc5o4)cc3)nn2)cc1)c1ccc(F)cc1O
Resp: 55

Req: Return Survival (reported value) for this compound: O=c1cc(-c2ccccc2)oc2cc(OCCOCCOCCn3cc(-c4ccc(-c5cn(CCOCCOCCOc6ccc7c(=O)cc(-c8ccccc8)oc7c6)nn5)cc4)nn3)ccc12
Resp: 88
